Test system: Glutaminase kidney isoform, mitochondrial (Homo sapiens)
Test description: qHTS for Inhibitors of Glutaminase (GLS)
Assay context: GLS enzymatic activity, qHTS titration; series mostly up to 45.5 µM
Screen size: about 410,000 compounds; about 850 (0.21%) were called active. Another 2% or so got no clear call; they are omitted. Calls come from the whole dose curve; as a rule, active = well fitted inhibition curve with a large enough effect; inconclusive = small, poorly fitted or top-dose-only effect, or another doubt; inactive = no such curve, though single readings can be large or run the other way. Many of the other results were omitted from the sample, so actives are more common in it than they were.
Please state which outcome applies, choosing from active, inactive

Use the examples below as a reference point.
- Compound: "Cc1cc2nc(NC(=O)c3ccc(S(=O)(=O)N4CCOCC4)cc3)sc2cc1C"
  Category label: "inactive"
- Compound: "CCOc1ccc(NS(=O)(=O)c2ccc(N)cc2)nn1"
  Category label: "inactive"
- Compound: "COc1ccc(-c2ccc(=O)n(CC(=O)Nc3ccc(Br)cc3F)n2)cc1"
  Category label: "inactive"
- Compound: "O=C(Nc1cccc(Cl)c1)c1csnn1"
  Category label: "inactive"
- Compound: "CC(C)CCN(C(=O)Nc1ccc(Cl)c(Cl)c1)C(C)c1cccs1 (centres undefined)"
  Category label: "inactive"

Outcome? `O=C(Nc1ccccc1Cl)N1CCC(CN2CCCC2)CC1`
inactive

Outcome? `Cc1cc(NC(=O)c2cccc(Cl)c2)ccc1-c1cc2ccccc2oc1=O`
inactive

Outcome? `O=C(/C=C/c1cccc(F)c1)NC1CC1`
inactive

Data origin, for the record: PubChem BioAssay AID624170
